protocol-text: Toxicity liver stage against HepG2, at 10uM
Format: cell-based
Parameters: test concentration 10 uM, cell line HepG2-A16-CD81EGFP
condition-set: human, HepG2-A16-CD81EGFP cells; read-out: INHIBITION
Reported cytotoxicity at 10 µM values are given for each entry in this list.

Previously resolved entries follow.
molecule | endpoint-result
Cc1noc(C)c1CN1CCCC2(C1)CN(c1nncs1)CCO2 (centres undefined) | 0.922%
Cc1oncc1NS(=O)(=O)c1c[nH]c2ncccc12 | -7.49%
CN(Cc1ccco1)[C@@H]1CN(Cc2ccc(F)cc2)[C@@H]2CCCO[C@H]12 | -70.6%
Cc1n[nH]c(C)c1CCN(C)C(=O)c1ccc(CCC(C)(C)O)cc1 | 6.15%
Oc1ccccc1-c1n[nH]c(C2CCCO2)n1 (centres undefined) | -5.22%

In: Any idea what cytotoxicity at 10 µM was measured for N#Cc1cccnc1NCCC1CCN(CC(F)(F)F)CC1 ?
Out: 11%

In: Any idea what cytotoxicity at 10 µM was measured for CC(=O)N1CCCN(C(=O)Cc2ccc3c(c2)OCO3)CC1 ?
Out: -15.1%

In: Any idea what cytotoxicity at 10 µM was measured for CC(C)NC(=O)N1CCC2(CC1)CC[C@@]1(C(=O)N(C)C)CN(C)C[C@@H]21 ?
Out: -108%

In: Any idea what cytotoxicity at 10 µM was measured for COc1cccc(CN2C[C@@H]3COC[C@]3(CNC(=O)C3CC3)C2)c1 ?
Out: -99%

In: Any idea what cytotoxicity at 10 µM was measured for COCCNC(=O)[C@@H]1CCO[C@@H]2CCN(c3ccc(C)nn3)C[C@@H]21 ?
Out: -73.2%

In: Any idea what cytotoxicity at 10 µM was measured for CCN(CC(=O)NC(C)C)S(=O)(=O)N1CCCCC1C (centres undefined) ?
Out: -1.14%

In: Any idea what cytotoxicity at 10 µM was measured for CCCc1nc2c(c(C)c(C)n2Cc2ccncc2)c(N)c1CC ?
Out: 14.3%

In: Any idea what cytotoxicity at 10 µM was measured for CN(C)CCN(C)C(=O)c1cn(CC2CCCCC2)nn1 ?
Out: -3.61%

In: Any idea what cytotoxicity at 10 µM was measured for CN(C(=O)NCc1ccncc1)C1CCN(c2ccccc2)C1=O (centres undefined) ?
Out: -13.5%

* * *

protocol-text: Toxicity liver stage against HepG2, at 10uM
Assay type: cell-based
Set-up: test concentration 10 uM, cell line HepG2-A16-CD81EGFP
condition-set: human, HepG2-A16-CD81EGFP cells; read-out: INHIBITION
Reported cytotoxicity at 10 µM values are given for each entry in this list.

In: Any idea what cytotoxicity at 10 µM was measured for c1ccc(OC2C[C@@H]3CN(Cc4cnccn4)C[C@@H]3C2)cc1 (some centres undefined) ?
Out: -5.92%

In: Any idea what cytotoxicity at 10 µM was measured for Cc1nc2n(n1)CC(NCc1nc(-c3cccs3)no1)CC2 (centres undefined) ?
Out: -1.66%

* * *

protocol-text: Toxicity liver stage against HepG2, at 10uM
Format: cell-based
Parameters: test concentration 10 uM, cell line HepG2-A16-CD81EGFP
condition-set: human, HepG2-A16-CD81EGFP cells; read-out: INHIBITION
reported-endpoint: cytotoxicity at 10 µM (%)
Note: unit % is implicit; provide only the numeric part.

Previously resolved entries follow.
compound | endpoint-result
CC(=O)N1CCCN(C(=O)c2ccc(Cn3ccccc3=O)o2)CC1 | -1.4
CCNC(=O)C1(Cc2cc(-c3ccccc3)no2)CCCN(C)C1 (stereo unspecified) | 5.31
c1cncc(CN2CCCC3(COCCN(c4nccs4)C3)C2)c1 (stereo unspecified) | -80.4

In: Any idea what cytotoxicity at 10 µM was measured for C[C@@H]1CN(S(=O)(=O)N2CCCCCC2)C[C@@]1(O)C1CCC1 ?
Out: 17.6

In: Any idea what cytotoxicity at 10 µM was measured for COc1ccc(CN2C[C@H]3CCC[C@@H](CN(C)C)[C@H]3C2)cn1 ?
Out: 4.65

In: Any idea what cytotoxicity at 10 µM was measured for O=S(=O)(c1cccs1)N1CCCn2nnc(CN3CCCCC3)c2C1 ?
Out: -17.5

* * *

protocol-text: Toxicity liver stage against HepG2, at 10uM
Format: cell-based
Design: test concentration 10 uM, cell line HepG2-A16-CD81EGFP
condition-set: human, HepG2-A16-CD81EGFP cells; read-out: INHIBITION
cytotoxicity at 10 µM strictly under 1% means met; at 1% or over means not met.

Examples with answers:
compound | label-class
COc1ncccc1CN1C[C@@H]2COC[C@]2(COCC2CC2)C1 | not met
O=C([C@@H]1CCCN1c1nccc(Nc2ccccc2)n1)N1CCCCC1 | met
N#Cc1ccc(CNC(=O)NC2CCN(CC(F)(F)F)C2)cc1 (stereo not given) | not met
COc1ccc(CN2CC[C@H]3[C@H]2CC(=O)N3Cc2cccc(C)n2)cc1 | not met

In: Strictly below 1%: is that where cytotoxicity at 10 µM of Cc1ncsc1CCN1CCN(C(=O)c2ccc(=O)[nH]c2)CC1 sits?
Out: not met

* * *

protocol-text: Toxicity liver stage against HepG2, at 10uM
Assay type: cell-based
Set-up: test concentration 10 uM, cell line HepG2-A16-CD81EGFP
condition-set: human, HepG2-A16-CD81EGFP cells; read-out: INHIBITION
Reported cytotoxicity at 10 µM values are given for each entry in this list.
Note: unit % is implicit; provide only the numeric part.

Previously resolved entries follow.
compound | cytotoxicity at 10 µM, %
CC(=O)NCCCC(=O)N1CCc2[nH]c(-c3ccccc3)nc2C1 | -3.73
CC(=O)NCCOc1c(C)cccc1C | -2.33
Cc1cccnc1NC(=O)CNC(=O)c1ccccc1Cl | -3.36
CCc1c(C)nc2cc(C3CCN(Cc4cccnc4)C3)nn2c1O (stereo unspecified) | -25.4
Cc1ccc(N2CCC3(CCN(Cc4csc(C)n4)C3=O)C2)nn1 (stereo unspecified) | -111

// next item, cytotoxicity at 10 µM requested
In: Any idea what cytotoxicity at 10 µM was measured for N#Cc1cccc(S(=O)(=O)NC2CCN(Cc3ccccc3)C2=O)c1 (stereo unspecified) ?
Out: -7.18

* * *

protocol-text: Toxicity liver stage against HepG2, at 10uM
Format: cell-based
Parameters: test concentration 10 uM, cell line HepG2-A16-CD81EGFP
condition-set: human, HepG2-A16-CD81EGFP cells; read-out: INHIBITION
Reported cytotoxicity at 10 µM values are given for each entry in this list.
Note: unit % is implicit; provide only the numeric part.

Previously resolved entries follow.
compound | unit-tag | cytotoxicity at 10 µM
COc1ncccc1C(=O)N1CCc2c(ncnc2N2CCOCC2)C1 | % | -3.5
CCS(=O)(=O)N1CCc2c(COCCN(C)C)cncc2C1 | % | -104
Cc1cnn(CC2CCCCN2CC(=O)N(C)Cc2ccc(C)o2)c1 (centres undefined) | % | 10.6

In: Any idea what cytotoxicity at 10 µM was measured for O=C(NCCC1=CCCCC1)NC1CCCc2c1cnn2CCO (centres undefined) ?
Out: -6.95

In: Any idea what cytotoxicity at 10 µM was measured for Cc1cccc(CNc2ccc(C(=O)N3CCC(CO)CC3)cc2)c1 ?
Out: 18.9

In: Any idea what cytotoxicity at 10 µM was measured for C=C(C)CN1CCC(n2cc(C3CCCC3)nn2)CC1 ?
Out: 4.98

In: Any idea what cytotoxicity at 10 µM was measured for CCn1nc(C)c2nnn(CC(=O)Nc3c(C)cccc3C)c(=O)c21 ?
Out: 5.22

* * *

protocol-text: Toxicity liver stage against HepG2, at 10uM
Assay type: cell-based
Set-up: test concentration 10 uM, cell line HepG2-A16-CD81EGFP
condition-set: human, HepG2-A16-CD81EGFP cells; read-out: INHIBITION
reported-endpoint: cytotoxicity at 10 µM

In: Any idea what cytotoxicity at 10 µM was measured for CN(c1ncc(C(N)=O)cc1Cl)C1CCC(c2ccccc2)CC1 (configuration not stated) ?
Out: 38.8%

In: Any idea what cytotoxicity at 10 µM was measured for O=C1C(NCc2ccc3c(c2)CCO3)CCN1Cc1ccccc1 (configuration not stated) ?
Out: 6.39%

In: Any idea what cytotoxicity at 10 µM was measured for Cn1cc(CNC(=O)c2cc3c(s2)CCCCC3)cn1 ?
Out: -12%

In: Any idea what cytotoxicity at 10 µM was measured for Cc1cccc(SC2CCN(C(=O)CCCn3cnnn3)CC2)c1 ?
Out: 0.647%

In: Any idea what cytotoxicity at 10 µM was measured for CCc1nc2n(n1)CC(NCC(=O)Nc1cc(C(C)(C)C)no1)CC2 (configuration not stated) ?
Out: -9.26%

* * *

protocol-text: Toxicity liver stage against HepG2, at 10uM
Assay type: cell-based
Design: test concentration 10 uM, cell line HepG2-A16-CD81EGFP
condition-set: human, HepG2-A16-CD81EGFP cells; read-out: INHIBITION
Reported cytotoxicity at 10 µM values are given for each entry in this list.
Note: unit % is implicit; provide only the numeric part.

compound | unit-tag | cytotoxicity at 10 µM
Cc1cnn(CC2CCCN2C(=O)c2cccc3[nH]ncc23)c1 (centres undefined) | % | -10.8
COC(=O)c1ccc(N2CCN(C(=O)c3ccc(O)nc3)C(C)C2)cc1 (centres undefined) | % | -4.5

In: Any idea what cytotoxicity at 10 µM was measured for CCOCC1CCN(C(=O)C(c2ccc(F)cc2)N(C)C)CC1 (centres undefined) ?
Out: 1.31

In: Any idea what cytotoxicity at 10 µM was measured for CN1CC(Oc2ccccc2)=NC(SCC(=O)Nc2ccc(Cl)cc2)=N1 ?
Out: -10.2

In: Any idea what cytotoxicity at 10 µM was measured for O=C(NCCNc1ncccn1)N1CCCC(C(F)(F)F)C1 (centres undefined) ?
Out: 1.05

In: Any idea what cytotoxicity at 10 µM was measured for CCc1nnc(CN2CCC(N3CCN(CC)C3=O)CC2)o1 ?
Out: 1.52

In: Any idea what cytotoxicity at 10 µM was measured for O=C1NCC(C(=O)Nc2ccc(=O)n(Cc3ccccc3Cl)c2)N1 (centres undefined) ?
Out: -1.73

In: Any idea what cytotoxicity at 10 µM was measured for CCOc1ncccc1CNC(=O)c1cc(C)on1 ?
Out: -19
